Test system: biotinyl-Met-oxazolone
Experiment: self-aminoacylation, catalytic enhancement (BMO) (fold over background); higher = more active; k-Seq, kA / k0A0; sequences stand for … in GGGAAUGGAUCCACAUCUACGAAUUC…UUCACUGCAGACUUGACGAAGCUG
Fewer inactive variants are shown than the library holds.
Attribute Measured: self-aminoacylation

// below: answered sequences
- Input Sequence: "AAUUCCCUGGUCAUCGAGUGA [Fam2.1 aminoacylation ribozyme variant]"
  Study System: "biotinyl-Met-oxazolone"
  self-aminoacylation: 10.1
- Input Sequence: "AUUGACCUGGUCAUCGAGUGA [Fam2.1 aminoacylation ribozyme variant]"
  Study System: "biotinyl-Met-oxazolone"
  self-aminoacylation: 6.92

// switching to the query sequence
So what's the measured self-aminoacylation for this one? AUUCACCUCCGUCAUCGGGUG [Fam2.2 aminoacylation ribozyme variant]
8.59

* * *

Tested on: biotinyl-Phe-oxazolone
Assay: self-aminoacylation, catalytic enhancement (BFO) (fold over background); higher = more active; k-Seq, kA / k0A0; sequences stand for … in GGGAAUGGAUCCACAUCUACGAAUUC…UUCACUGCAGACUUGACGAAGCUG
This sample holds only a part of the variants without activity.
self-aminoacylation vs 30: at or above is Satisfied, below is Not satisfied.

A selection of reference data follows.
- Input Sequence: "CCACACUGCAAGCAAUCGGUU [Fam1B.1 aminoacylation ribozyme variant]"
  Class Label: "Not satisfied"
- Input Sequence: "AUUACCAUGGUCAUCGGGUGA [Fam2.1 aminoacylation ribozyme variant]"
  Class Label: "Satisfied"
- Input Sequence: "CUACUUCGAACAAUAGGUCUG [Fam1A.1 aminoacylation ribozyme variant]"
  Class Label: "Not satisfied"
- Input Sequence: "AUUCAUGUAGGUCAUCGGGUG [Fam2.2 aminoacylation ribozyme variant]"
  Class Label: "Satisfied"
- Input Sequence: "AAUCCCCUAGGUCAUCGGGUG [Fam2.2 aminoacylation ribozyme variant]"
  Class Label: "Satisfied"

Reported self-aminoacylation at or above 30? AUCCACCUCGGUCAUCGGGUG [Fam2.2 aminoacylation ribozyme variant]
Satisfied

Answer whether self-aminoacylation of AAGUUUGCUAAUAGUAGCAAG [Fam3.1 aminoacylation ribozyme variant] is greater than or equal to 30.
Not satisfied

Quick check, self-aminoacylation >= 30? AUUACCCUGCUCAUCGAGUGG [Fam2.1 aminoacylation ribozyme variant]
Not satisfied

// inclusive: self-aminoacylation at least 30? input: AUUAACCUAGUCAUCGAGUGA [Fam2.1 aminoacylation ribozyme variant]
Not satisfied

* * *

Test system: biotinyl-Leu-oxazolone
Assay: self-aminoacylation, catalytic enhancement (BLO) (fold over background); higher = more active; k-Seq, kA / k0A0; sequences stand for … in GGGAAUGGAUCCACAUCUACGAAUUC…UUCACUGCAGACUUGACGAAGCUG
Variants at the floor of the assay were thinned out.
Output Yes for self-aminoacylation not less than 5; output No otherwise.

Solved cases below.
- Input Sequence: "AAGUUUGCUUAUAGUAGCAAG [Fam3.1 aminoacylation ribozyme variant]"
  Study System: "biotinyl-Leu-oxazolone"
  Class Label: "No"
- Input Sequence: "AUUCACCUAGCUCAUCGAGUG [Fam2.2 aminoacylation ribozyme variant]"
  Study System: "biotinyl-Leu-oxazolone"
  Class Label: "No"
- Input Sequence: "AUUCACCCAGGUCAUCUGGUG [Fam2.2 aminoacylation ribozyme variant]"
  Study System: "biotinyl-Leu-oxazolone"
  Class Label: "No"
- Input Sequence: "AUCACCCUGGUCAUAGAGUGA [Fam2.1 aminoacylation ribozyme variant]"
  Study System: "biotinyl-Leu-oxazolone"
  Class Label: "Yes"

# bool: self-aminoacylation of AAGUUUGCUUAUAGUCGCAAG [Fam3.1 aminoacylation ribozyme variant] >= 5
No
